systemTested: ABCG2 (Homo sapiens, UniProt Q9UNQ0)
assayDetails: Inhibition of ABCG2-mediated mitoxantrone efflux in mitoxantrone-selected human H460 cells at 5 to 10 uM after 30 mins by flow cytometric analysis relative to control
Assay type: cell-based
experimentalContext: probe mitoxantrone, read-out: Imax

smilesInput | systemTested | Emax at 0.5 h (%)
O=C(NCc1cn(Cc2ccccc2)nn1)c1cc(=O)c2c(OCc3ccc(Br)cc3)cccc2o1 | ABCG2 (Homo sapiens, UniProt Q9UNQ0) | 76
CN(CCc1cn(C)c2ccccc12)C(=O)c1cc(=O)c2cc(OCc3ccc(Br)cc3)ccc2o1 | ABCG2 (Homo sapiens, UniProt Q9UNQ0) | 61
COc1ccc2[nH]cc(CCN(C)C(=O)c3cc(=O)c4c(OCc5ccc(Br)cc5)cccc4o3)c2c1 | ABCG2 (Homo sapiens, UniProt Q9UNQ0) | 96
COc1ccc2c(CCNC(=O)c3cc(=O)c4c(OCc5ccc(Br)cc5)cccc4o3)c[nH]c2c1 | ABCG2 (Homo sapiens, UniProt Q9UNQ0) | 89
COc1ccc2[nH]cc(CCNC(=O)c3cc(=O)c4c(OCc5ccc(Br)cc5)cccc4o3)c2c1 | ABCG2 (Homo sapiens, UniProt Q9UNQ0) | 107
COc1ccc2[nH]cc(CCN(C)Cc3cc(=O)c4c(OCc5ccc(Br)cc5)cccc4o3)c2c1 | ABCG2 (Homo sapiens, UniProt Q9UNQ0) | 106
Cn1cc(CCNC(=O)c2cc(=O)c3c(OCc4ccc(Br)cc4)cccc3o2)c2ccccc21 | ABCG2 (Homo sapiens, UniProt Q9UNQ0) | 102
COc1ccc2[nH]cc(CCNC(=O)c3cc(=O)c4cc(OCc5ccc(Br)cc5)ccc4o3)c2c1 | ABCG2 (Homo sapiens, UniProt Q9UNQ0) | 109
CN(CCc1c[nH]c2ccccc12)C(=O)c1cc(=O)c2cc(OCc3ccc(Br)cc3)ccc2o1 | ABCG2 (Homo sapiens, UniProt Q9UNQ0) | 50
O=C(NCc1cn(Cc2ccc(Br)cc2)nn1)c1cc(=O)c2c(OCc3ccc(Br)cc3)cccc2o1 | ABCG2 (Homo sapiens, UniProt Q9UNQ0) | 76
O=C(NCc1cn(CCc2c[nH]c3ccccc23)nn1)c1cc(=O)c2c(OCc3ccc(Br)cc3)cccc2o1 | ABCG2 (Homo sapiens, UniProt Q9UNQ0) | 86
CN(CCc1cn(C)c2ccccc12)C(=O)c1cc(=O)c2c(OCc3ccc(Br)cc3)cccc2o1 | ABCG2 (Homo sapiens, UniProt Q9UNQ0) | 84
CN(CCc1c[nH]c2ccccc12)C(=O)c1cc(=O)c2c(OCc3ccc(Br)cc3)cccc2o1 | ABCG2 (Homo sapiens, UniProt Q9UNQ0) | 89
CN(CCc1c[nH]c2ccccc12)Cc1cc(=O)c2c(OCc3ccc(Br)cc3)cccc2o1.Cl | ABCG2 (Homo sapiens, UniProt Q9UNQ0) | 104
COc1ccc2[nH]cc(CCNC(=O)c3cc(=O)c4ccc(OCc5ccc(Br)cc5)cc4o3)c2c1 | ABCG2 (Homo sapiens, UniProt Q9UNQ0) | 93

----------
systemTested: Broad substrate specificity ATP-binding cassette transporter ABCG2 (Homo sapiens, UniProt Q9UNQ0)
assayDetails: Inhibition of ABCG2-mediated mitoxantrone efflux in mitoxantrone-selected human H460 cells after 30 mins by flow cytometric analysis
Format: cell-based
measuredMetric: EC50 (nM)

smilesInput | measuredMetric | measuredResult
COc1ccc2[nH]cc(CCN(C)Cc3cc(=O)c4c(OCc5ccc(Br)cc5)cccc4o3)c2c1 | EC50 | 600
CN(CCc1c[nH]c2ccccc12)C(=O)c1cc(=O)c2c(OCc3ccc(Br)cc3)cccc2o1 | EC50 | 570
Cn1cc(CCNC(=O)c2cc(=O)c3c(OCc4ccc(Br)cc4)cccc3o2)c2ccccc21 | EC50 | 220
COc1ccc2c(CCNC(=O)c3cc(=O)c4c(OCc5ccc(Br)cc5)cccc4o3)c[nH]c2c1 | EC50 | 80
O=C(NCc1cn(Cc2ccc(Br)cc2)nn1)c1cc(=O)c2c(OCc3ccc(Br)cc3)cccc2o1 | EC50 | 710
CN(CCc1c[nH]c2ccccc12)Cc1cc(=O)c2c(OCc3ccc(Br)cc3)cccc2o1.Cl | EC50 | 1110
O=C(NCc1cn(CCc2c[nH]c3ccccc23)nn1)c1cc(=O)c2c(OCc3ccc(Br)cc3)cccc2o1 | EC50 | 460
CN(CCc1cn(C)c2ccccc12)C(=O)c1cc(=O)c2cc(OCc3ccc(Br)cc3)ccc2o1 | EC50 | 2150
COc1ccc2[nH]cc(CCN(C)C(=O)c3cc(=O)c4c(OCc5ccc(Br)cc5)cccc4o3)c2c1 | EC50 | 530
CN(CCc1cn(C)c2ccccc12)C(=O)c1cc(=O)c2c(OCc3ccc(Br)cc3)cccc2o1 | EC50 | 500

----------
systemTested: Multidrug resistance-associated protein 1 (Homo sapiens, UniProt P33527)
Sequence (P33527 whole entry): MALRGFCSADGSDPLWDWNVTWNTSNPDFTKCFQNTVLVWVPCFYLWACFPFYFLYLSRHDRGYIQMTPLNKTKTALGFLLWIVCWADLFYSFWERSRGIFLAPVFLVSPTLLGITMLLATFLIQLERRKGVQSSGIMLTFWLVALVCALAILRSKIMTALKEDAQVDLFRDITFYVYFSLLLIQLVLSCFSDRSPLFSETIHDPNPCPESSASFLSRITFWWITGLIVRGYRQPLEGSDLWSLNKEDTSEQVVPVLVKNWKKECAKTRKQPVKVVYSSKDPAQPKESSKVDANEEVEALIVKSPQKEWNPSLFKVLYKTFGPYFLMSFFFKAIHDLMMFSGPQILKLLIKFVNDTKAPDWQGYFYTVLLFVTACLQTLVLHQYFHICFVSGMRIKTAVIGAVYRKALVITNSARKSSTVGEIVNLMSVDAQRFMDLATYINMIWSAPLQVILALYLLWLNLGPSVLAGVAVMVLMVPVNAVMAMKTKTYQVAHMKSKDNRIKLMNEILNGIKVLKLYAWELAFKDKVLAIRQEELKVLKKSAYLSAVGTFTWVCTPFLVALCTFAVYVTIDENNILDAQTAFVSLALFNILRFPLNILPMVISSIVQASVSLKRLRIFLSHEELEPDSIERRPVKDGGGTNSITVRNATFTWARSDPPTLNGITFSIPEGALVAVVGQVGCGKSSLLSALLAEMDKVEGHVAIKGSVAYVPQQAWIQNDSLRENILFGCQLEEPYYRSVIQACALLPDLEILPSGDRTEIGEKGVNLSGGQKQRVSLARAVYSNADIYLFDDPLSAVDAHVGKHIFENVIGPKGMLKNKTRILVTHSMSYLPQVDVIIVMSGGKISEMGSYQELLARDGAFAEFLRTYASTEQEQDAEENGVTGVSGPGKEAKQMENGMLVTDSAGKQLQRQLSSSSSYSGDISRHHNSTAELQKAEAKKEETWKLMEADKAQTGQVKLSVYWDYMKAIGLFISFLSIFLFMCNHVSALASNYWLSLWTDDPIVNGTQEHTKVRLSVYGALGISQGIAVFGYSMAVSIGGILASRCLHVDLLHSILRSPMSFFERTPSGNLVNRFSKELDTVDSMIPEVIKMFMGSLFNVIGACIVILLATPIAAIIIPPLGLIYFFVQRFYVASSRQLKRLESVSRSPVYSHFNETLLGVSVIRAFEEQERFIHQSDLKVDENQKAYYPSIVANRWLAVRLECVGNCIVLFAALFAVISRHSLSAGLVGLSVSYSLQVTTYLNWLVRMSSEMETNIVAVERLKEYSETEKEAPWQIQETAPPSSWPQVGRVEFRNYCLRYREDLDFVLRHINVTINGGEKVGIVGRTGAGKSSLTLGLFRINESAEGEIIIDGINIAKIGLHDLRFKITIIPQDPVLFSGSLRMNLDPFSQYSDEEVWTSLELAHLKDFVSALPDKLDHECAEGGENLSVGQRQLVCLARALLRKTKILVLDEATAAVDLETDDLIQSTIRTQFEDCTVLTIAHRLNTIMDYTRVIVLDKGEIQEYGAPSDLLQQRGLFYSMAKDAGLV
assayDetails: Inhibition of ABCC1 (unknown origin)-mediated calcein-AM efflux expressed in HEK293 cells at 5 uM after 30 mins by flow cytometric analysis
Type: cell-based
experimentalContext: hek293, 0.5 h

smilesInput | inhibition (INH)
COc1ccc2[nH]cc(CCNC(=O)c3cc(=O)c4c(OCc5ccc(Br)cc5)cccc4o3)c2c1 | Not Active
Cn1cc(CCNC(=O)c2cc(=O)c3c(OCc4ccc(Br)cc4)cccc3o2)c2ccccc21 | Not Active
COc1ccc2[nH]cc(CCNC(=O)c3cc(=O)c4cc(OCc5ccc(Br)cc5)ccc4o3)c2c1 | Not Active
CN(CCc1c[nH]c2ccccc12)C(=O)c1cc(=O)c2c(OCc3ccc(Br)cc3)cccc2o1 | Not Active
COc1ccc2c(CCNC(=O)c3cc(=O)c4c(OCc5ccc(Br)cc5)cccc4o3)c[nH]c2c1 | Not Active
CN(CCc1cn(C)c2ccccc12)C(=O)c1cc(=O)c2c(OCc3ccc(Br)cc3)cccc2o1 | Not Active
COc1ccc2[nH]cc(CCN(C)C(=O)c3cc(=O)c4c(OCc5ccc(Br)cc5)cccc4o3)c2c1 | Not Active

----------
systemTested: Broad substrate specificity ATP-binding cassette transporter ABCG2 (Homo sapiens, UniProt Q9UNQ0)
Sequence (Q9UNQ0 whole entry): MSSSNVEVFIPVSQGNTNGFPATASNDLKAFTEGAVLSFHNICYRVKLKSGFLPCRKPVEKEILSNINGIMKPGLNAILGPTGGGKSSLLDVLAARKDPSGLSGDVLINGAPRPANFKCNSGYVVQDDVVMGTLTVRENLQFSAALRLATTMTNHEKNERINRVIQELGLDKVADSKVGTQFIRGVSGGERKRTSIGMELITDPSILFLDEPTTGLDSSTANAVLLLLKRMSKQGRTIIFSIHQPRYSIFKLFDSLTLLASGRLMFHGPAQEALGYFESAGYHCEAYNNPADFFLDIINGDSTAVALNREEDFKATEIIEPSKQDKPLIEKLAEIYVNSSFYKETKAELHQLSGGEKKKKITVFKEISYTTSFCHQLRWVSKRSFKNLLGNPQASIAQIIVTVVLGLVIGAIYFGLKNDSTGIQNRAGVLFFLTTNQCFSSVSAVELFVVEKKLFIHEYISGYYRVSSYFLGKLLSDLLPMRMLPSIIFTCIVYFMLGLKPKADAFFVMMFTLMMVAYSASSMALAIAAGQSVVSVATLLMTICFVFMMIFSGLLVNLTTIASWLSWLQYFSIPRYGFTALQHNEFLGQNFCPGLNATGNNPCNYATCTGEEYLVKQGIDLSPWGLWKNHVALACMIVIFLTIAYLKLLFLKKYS
assayDetails: Inhibition of human ABCG2 ATPase activity expressed in Sf9 insect cell membranes at 2 uM after 30 mins by colorimetric analysis relative to basal control in presence of sodium orthovanadate
experimentalContext: sf9, 0.5 h

smilesInput | inhibition (INH)
CN(CCc1c[nH]c2ccccc12)C(=O)c1cc(=O)c2c(OCc3ccc(Br)cc3)cccc2o1 | Active
CN(CCc1cn(C)c2ccccc12)C(=O)c1cc(=O)c2cc(OCc3ccc(Br)cc3)ccc2o1 | Not Active
COc1ccc2[nH]cc(CCNC(=O)c3cc(=O)c4cc(OCc5ccc(Br)cc5)ccc4o3)c2c1 | Not Active
CN(CCc1c[nH]c2ccccc12)Cc1cc(=O)c2c(OCc3ccc(Br)cc3)cccc2o1.Cl | Active
O=C(NCc1cn(Cc2ccc(Br)cc2)nn1)c1cc(=O)c2c(OCc3ccc(Br)cc3)cccc2o1 | Not Active
CN(CCc1cn(C)c2ccccc12)C(=O)c1cc(=O)c2c(OCc3ccc(Br)cc3)cccc2o1 | Active
COc1ccc2[nH]cc(CCNC(=O)c3cc(=O)c4c(OCc5ccc(Br)cc5)cccc4o3)c2c1 | Active
COc1ccc2c(CCNC(=O)c3cc(=O)c4c(OCc5ccc(Br)cc5)cccc4o3)c[nH]c2c1 | Active
Cn1cc(CCNC(=O)c2cc(=O)c3c(OCc4ccc(Br)cc4)cccc3o2)c2ccccc21 | Active

----------
systemTested: Broad substrate specificity ATP-binding cassette transporter ABCG2 (Homo sapiens)
assayDetails: Inhibition of human ABCG2 ATPase activity expressed in Sf9 insect cell membranes at 2 uM after 30 mins by colorimetric analysis relative to basal control in presence of sodium orthovanadate
experimentalContext: sf9, 0.5 h
measuredMetric: inhibition (INH)

smilesInput | measuredResult
O=C(NCc1cn(CCc2c[nH]c3ccccc23)nn1)c1cc(=O)c2c(OCc3ccc(Br)cc3)cccc2o1 | Active
CN(CCc1c[nH]c2ccccc12)C(=O)c1cc(=O)c2cc(OCc3ccc(Br)cc3)ccc2o1 | Not Active
COc1ccc2[nH]cc(CCN(C)C(=O)c3cc(=O)c4c(OCc5ccc(Br)cc5)cccc4o3)c2c1 | Active
O=C(NCc1cn(Cc2ccccc2)nn1)c1cc(=O)c2c(OCc3ccc(Br)cc3)cccc2o1 | Not Active
COc1ccc2[nH]cc(CCN(C)Cc3cc(=O)c4c(OCc5ccc(Br)cc5)cccc4o3)c2c1 | Active
